System: SW-620 colon
experimentNotes: NCI tumour cell line growth inhibition, 48 h

molecule	TGI
CCSc1nnc2c(-c3ccccc3)n[nH]c2n1	> 100 µM
CCOC(=O)c1cnc(-n2[nH]c(C)c(CCO)c2=O)[nH]c1=O	> 100 µM
COc1c2cc([N+](=O)[O-])cc1CNC(=O)CN1CCOCCOCCN(CCOCCOCC1)CC(=O)NC2	> 100 µM
O=[N+]([O-])c1ccc(Nc2ccccc2-c2ccccc2)c2nonc12	44.8 µM
COc1cc2c(cc1OC)C13CCN4C=C5CCOC6CC(=O)N2C1C6C5CC43 (stereo not given)	> 100 µM
c1ccc(C2=NC3(CCCCC3)N(c3nc4ccccc4s3)N2)nc1	> 100 µM
O=C(O)CN(c1ccccc1)S(=O)(=O)c1ccc(NC(=O)c2ccccc2)cc1	> 100 µM
CCOC(=O)CCCn1nnc(C(=O)OCC)c1C(=O)OCC	> 100 µM
Cn1cc(-c2nonc2-c2c[nH]c3ccccc23)c2ccccc21	15.6 µM
CCC(C)[C@@H](NCc1ccccc1)[C@H](OCc1ccccc1)[C@@H]1COC(C)(C)O1 (stereo not given in full)	48.5 µM

----------
As shown below, each of these compounds has a reported TGI value.
System: MCF7 breast
experimentNotes: NCI tumour cell line growth inhibition, 48 h

sampleSmiles	TGI
COC(=O)[C@@H](NC(=O)NC(=O)NC(=O)CI)C(C)C	12.7 µM
COc1cc2c(/C=N\N=C(N)N)c(Cl)[nH]c2cc1C	27.5 µM
COC(=O)[C@H](Cc1ccccc1)NC(=O)c1ccc(CNC(=O)/C=C/c2ccc(-c3ccccc3)cc2)cc1	> 100 µM
Cc1c2cnccc2c(C)c2c1c1cc(C3OCCCO3)ccc1n2C	1.35 µM
N#Cc1cc(C#N)c(Cl)nc1N	> 10 µM
Nc1nc2c(=O)c3ccccc3sc2s1	> 100 µM

----------
Test system: SK-MEL-5 melanoma
experimentNotes: NCI tumour cell line growth inhibition, 48 h
experimentalEndpoint: log10 of TGI (log10 of the value in µM)

compound	studySystem	measuredResult
O=C(c1ccccc1)c1c(NCC(O)CN2CCCC2)n(Cc2ccccc2)c(=O)n(Cc2ccccc2)c1=O (stereo not drawn)	SK-MEL-5 melanoma	1.40
Cn1cnc([N+](=O)[O-])c1Sc1nc2cc(Cl)c(F)cc2[nH]1	SK-MEL-5 melanoma	1.38
COC1=CC(c2ccc[nH]2)=N/C1=C\c1[nH]c(C)c(C(=O)OCc2ccccc2)c1C	SK-MEL-5 melanoma	-0.75
C(=Nc1ccccc1)C1CCCC[N-]1.C(=Nc1ccccc1)C1CCCC[N-]1.[Cu+2].[O-][Cl+3]([O-])([O-])O (stereo not drawn)	SK-MEL-5 melanoma	1.44
O=C(CSCC(=O)N/N=C/c1cc(I)cc(I)c1O)N/N=C/c1cc(I)cc(I)c1O	SK-MEL-5 melanoma	1.39
CCOc1ccc2nc(NC(=O)C(=O)C(C(=O)c3ccccc3-c3ccccc3)C3OC(=O)c4ccccc43)sc2c1 (stereo not drawn)	SK-MEL-5 melanoma	1.50
O=[N+]([O-])c1ccc(Nc2ccccc2-c2ccccc2)c2nonc12	SK-MEL-5 melanoma	1.27
COc1cccc([C@H]2CC(=O)c3cc4c(cc3N2)OCO4)c1	SK-MEL-5 melanoma	-0.65
COc1ccc(/C(=N/NC(N)=O)C2(O)C(=O)Nc3ccc([N+](=O)[O-])cc32)cc1 (stereo not drawn)	SK-MEL-5 melanoma	1.89
CC1=C(C(=O)NCc2ccccc2)C(c2ccc(C3C(C(=O)NCc4ccccc4)=C(C)NC(C)=C3C(=O)NCc3ccccc3)cc2)C(C(=O)NCc2ccccc2)=C(C)N1	SK-MEL-5 melanoma	1.49
COc1cccc(C2CC(c3cc(OC)c(OC)c(OC)c3)=NN2)c1 (stereo not drawn)	SK-MEL-5 melanoma	1.38
C/C=C/[C@@]1(OC(=O)c2ccccc2)C[C@@H]2CCCC[C@@H]21	SK-MEL-5 melanoma	1.47
CCOc1cc2c(cc1O)/C(=N\N)C[C@@H]1[C@@H]2CC[C@]2(C)[C@@H](O)CC[C@@H]12	SK-MEL-5 melanoma	1.45
Clc1ccc2c(SCC3CO3)c3ccccc3nc2c1 (stereo not drawn)	SK-MEL-5 melanoma	0.96
C=C1C(=O)OC2/C=C(\C)C(OC(C)=O)C3OC3C(C)(O)CC(OC(=O)/C(C)=C/C)C12 (stereo not drawn)	SK-MEL-5 melanoma	1.44
COc1cc(/C=C/C(=O)OCC23CC[C@@]4(C(=O)O)CCC(C)[C@H](C)C4C2=CCC2[C@@]4(C)CC[C@H](O)C(C)(C)C4CC[C@]23C)ccc1O (stereo partly drawn)	SK-MEL-5 melanoma	1.52
